# target_under_test: Cannabinoid receptor 1 (Mus musculus)
# Sequence (P47746 whole entry): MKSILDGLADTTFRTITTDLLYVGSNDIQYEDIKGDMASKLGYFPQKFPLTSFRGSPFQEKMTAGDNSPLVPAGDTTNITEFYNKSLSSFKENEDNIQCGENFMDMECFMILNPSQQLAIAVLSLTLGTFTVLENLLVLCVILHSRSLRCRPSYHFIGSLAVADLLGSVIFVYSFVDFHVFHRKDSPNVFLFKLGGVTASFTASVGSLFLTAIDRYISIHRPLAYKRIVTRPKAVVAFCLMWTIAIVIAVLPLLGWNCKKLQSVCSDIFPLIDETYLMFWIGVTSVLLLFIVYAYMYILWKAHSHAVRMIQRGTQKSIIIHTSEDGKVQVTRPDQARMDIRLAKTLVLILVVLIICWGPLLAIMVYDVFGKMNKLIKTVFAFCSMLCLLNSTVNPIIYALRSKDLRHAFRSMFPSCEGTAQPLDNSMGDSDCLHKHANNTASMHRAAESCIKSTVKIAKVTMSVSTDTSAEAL
# protocol_description: Activation of CB1 receptor in B6SJL mouse brain membrane assessed as [35S]-GTPgammaS binding at 10 uM after 30 mins by liquid scintillation spectrophotometric analysis
# Format: functional, cell membranes
Active and inactive are the calls of the source. No cut-off for these calls is given here.
Classes used: 1 for active, -1 for inactive

1. CCCCCn1cc(C(=O)c2cccc3ccccc23)c2ccccc21 ... 1
2. CCCCCc1cc(O)c2c(c1)OC(C)(C)[C@@H]1CCC(C)=C[C@@H]21 ... 1
3. O=C(c1cccc2ccccc12)c1cn(CCCCCO)c2ccccc12 ... 1
4. O=C(c1cccc2ccccc12)c1cn(CCCCCF)c2ccccc12 ... 1
5. O=C(c1cccc2ccccc12)c1cn(CCCC(O)CF)c2ccccc12 (stereo not drawn) ... 1
6. CCCCCCC(C)(C)c1ccc([C@@H]2C[C@H](O)CC[C@H]2CCCO)c(O)c1 ... 1
7. O=C(O)CCCCn1cc(C(=O)c2cccc3ccccc23)c2ccccc21 ... -1
8. CC(O)CCCn1cc(C(=O)c2cccc3ccccc23)c2ccccc21 (stereo not drawn) ... 1

====

# pKi per entry for Cannabinoid receptor 1 (Mus musculus, UniProt P47746)
pKi: −log10 of the molar value.
reported_property: pKi

1) CCCCCn1cc(C(=O)c2cccc3ccccc23)c2ccccc21 ... 8.89
2) O=C(c1cccc2ccccc12)c1cn(CCCCCF)c2ccccc12 ... 9.40
3) O=C(c1cccc2ccccc12)c1cn(CCCCCO)c2ccccc12 ... 7.46
4) CC(O)CCCn1cc(C(=O)c2cccc3ccccc23)c2ccccc21 (stereo not given) ... 7.81

====

# System: Liver microsome
# protocol_description: Drug metabolism in human liver microsomes assessed as intrinsic clearance per mg protein treated with AM2201
# Type: ADME
reported_property: CLH (µL/min/g)

1) CCCCCn1cc(C(=O)c2cccc3ccccc23)c2ccc(O)cc21 ... 0
2) O=C(O)CCCCn1cc(C(=O)c2cccc3ccccc23)c2ccccc21 ... 0.6
3) O=C(c1cccc2ccccc12)c1cn(CCCCCO)c2ccccc12 ... 0.483
4) O=C(c1cccc2ccccc12)c1cn(CCCC(O)CF)c2ccccc12 (stereo unspecified) ... 0.124
5) CCCCCn1cc(C(=O)c2cccc3ccccc23)c2cc(O)ccc21 ... 0
6) CCCCCn1cc(C(=O)c2cccc3ccccc23)c2cccc(O)c21 ... 0
